Biological target: native mouse MET on living cells (mouse, UniProt P16056 25-1379)
Assay: cell-based or functional assay
Recorded Endpoint: protection from staurosporine-induced apoptosis EMAX, MLP29 cells (%)

binder="71G12 chimeric llama-human IgG1 mAb (antibody, V domains shown, human IgG1 CH1-CH2-CH3 and human CL kappa) VH: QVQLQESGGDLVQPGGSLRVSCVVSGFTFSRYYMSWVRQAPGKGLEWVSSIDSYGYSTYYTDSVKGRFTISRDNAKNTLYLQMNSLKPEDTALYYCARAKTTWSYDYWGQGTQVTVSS VL: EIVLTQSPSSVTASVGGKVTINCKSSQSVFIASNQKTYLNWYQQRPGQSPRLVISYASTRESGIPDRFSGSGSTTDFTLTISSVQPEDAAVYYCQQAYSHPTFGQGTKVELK" unit_abbreviation=% assay_result=39.7
binder="71C3 chimeric llama-human IgG1 mAb (antibody, V domains shown, human IgG1 CH1-CH2-CH3 and human CL lambda) VH: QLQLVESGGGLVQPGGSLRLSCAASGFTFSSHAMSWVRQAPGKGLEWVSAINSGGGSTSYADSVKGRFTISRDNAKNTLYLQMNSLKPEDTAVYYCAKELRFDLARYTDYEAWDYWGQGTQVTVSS VL: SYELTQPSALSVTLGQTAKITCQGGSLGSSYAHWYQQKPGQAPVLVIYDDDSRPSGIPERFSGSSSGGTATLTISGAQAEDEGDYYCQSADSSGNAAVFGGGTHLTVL" unit_abbreviation=% assay_result=51.3

Values were extracted from patent US20200407452A1.
